The following compounds are listed with their measured IC50 values.
- STUDY TARGET: cdc2/cyclinB (Homo sapiens)
- Sequence (P06493 whole entry): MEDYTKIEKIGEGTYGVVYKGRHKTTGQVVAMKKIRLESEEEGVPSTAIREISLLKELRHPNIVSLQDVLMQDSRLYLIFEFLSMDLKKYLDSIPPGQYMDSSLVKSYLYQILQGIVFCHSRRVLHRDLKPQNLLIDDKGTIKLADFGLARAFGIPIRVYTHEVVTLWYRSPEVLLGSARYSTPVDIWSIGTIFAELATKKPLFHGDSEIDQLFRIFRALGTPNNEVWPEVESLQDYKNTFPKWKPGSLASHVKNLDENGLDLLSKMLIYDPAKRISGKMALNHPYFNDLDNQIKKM
- Sequence (P14635 whole entry, further chain): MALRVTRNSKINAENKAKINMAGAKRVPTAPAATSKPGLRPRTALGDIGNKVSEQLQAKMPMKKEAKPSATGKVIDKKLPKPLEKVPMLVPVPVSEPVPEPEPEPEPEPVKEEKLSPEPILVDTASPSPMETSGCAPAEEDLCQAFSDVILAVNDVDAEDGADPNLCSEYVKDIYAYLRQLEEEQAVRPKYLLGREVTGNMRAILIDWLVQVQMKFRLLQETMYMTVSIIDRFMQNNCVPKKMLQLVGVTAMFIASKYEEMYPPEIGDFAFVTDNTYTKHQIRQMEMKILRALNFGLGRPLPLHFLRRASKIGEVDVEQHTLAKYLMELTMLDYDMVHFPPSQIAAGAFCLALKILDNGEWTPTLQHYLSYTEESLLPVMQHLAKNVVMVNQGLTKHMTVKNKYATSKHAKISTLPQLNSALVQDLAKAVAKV
- TEST NAME: Cyclin-Dependent Kinase Assay cdc2/cyclinB
- CONDITION SUMMARY: read-out: cdk1/B IC50; Table 1
TEST READOUT: IC50 (µM)

{"COMPOUND": "CN(C)CCCN1CCN(c2ccc(Nc3ncc4ccc(=O)n(C5CCCCC5)c4n3)cc2)CC1", "OBSERVED RESULT": 0.344}
{"COMPOUND": "O=c1ccc2cnc(Nc3ccc(N4CCCCC4)cc3)nc2n1C1CCCCCC1", "OBSERVED RESULT": 0.642}
{"COMPOUND": "O=c1ccc2cnc(Nc3ccc(SC(F)(F)F)cc3)nc2n1C1CC2CCC1C2 (stereo not shown)", "OBSERVED RESULT": 1.12}
{"COMPOUND": "CC1CN(c2ccc(Nc3ncc4ccc(=O)n(C5CC6CCC5C6)c4n3)cc2)CC(C)N1 (stereo not shown)", "OBSERVED RESULT": 0.335}
